Assay Readout: melting point

In [3]: df
Out[3]:
                                    molecule       reported
 0  NC(=O)[C@@H]1C[C@@H]2C[C@@H]2N1C(=O)[C@@H](NC(=O)OCc1ccccc1)C12CC3CC(CC(O)(C3)C1)C2  105 to 106 °C
 1  CN1CC(CO)C=C2c3cccc4[nH]c(Br)c(c34)CC21 (centres undefined)         193 °C
 2  CC(C)(CCCCOc1cc(-c2ccccc2)cc(-c2ccccc2)n1)c1nnn[nH]1  160 to 162 °C
 3  CC[C@H](C)CNC(=O)[C@@H](C[C@H](O)[C@H](CC1CCCCC1)NC(=O)[C@H](Cc1cscn1)NC(=O)[C@@H](CC(=O)N1CCOCC1)Cc1ccccc1)C(C)(C)O    80 to 82 °C
 4  Cc1ccc2c(c1)[nH]c(=O)n2CCCN1CCN(C(c2ccccc2)c2ccccc2)CC1         178 °C
 5  C=CC(c1ncc([N+](=O)[O-])n1C)N(C)C (centres undefined)  110 to 113 °C
 6          C=COC(=O)[C@H](Cc1ccccc1)NC(C)=O    90 to 93 °C
 7  CC(C)CC(=O)Nc1cccc(-c2ccnc3c(-c4cccc(CN5CCOCC5)c4)cnn23)c1  170 to 173 °C
 8  COc1ccc([C@H]2CC[C@H](c3ccc(OC)c(OC)c3)O2)cc1OC (relative stereo)  114 to 115 °C
 9  O=C1OC(CCO)C(O)=C1OCc1ccccc1 (centres undefined)    98 to 99 °C
10  CC(C)(C)OC(=O)N[C@@H]1C(=O)N2C(C(=O)OC(c3ccccc3)c3ccccc3)=C(/C=C3\CCN(CC4CC4)C3=O)CS[C@H]12  175 to 180 °C
11   COC(=O)c1ccc(-c2nc3cc(C(=O)O)ccc3o2)cc1  275 to 284 °C
12  CC#CCOc1ccc(S(=O)C(C(=O)NO)c2cccc3ccccc23)cc1 (centres undefined)         159 °C
13  COC(=O)c1c(N)c2c(c(N)c1C#N)C(=O)c1ccccc1C2=O  215 to 218 °C
14                Cc1ccc(-c2ncc(C)c(C)n2)cc1         114 °C
15  Cc1cc(NC(=O)N(CC(C)C)CC(C)C)cc(C)c1S(=O)(=O)C[N+](=O)[O-]  153 to 155 °C
16       OCCC1CC2CCN1CC2 (centres undefined)    62 to 64 °C
17  CCOC(=O)c1cnn(-c2ccc(OCC(C)(C)COC(=O)c3ccccc3)c(C#N)c2)c1  112 to 114 °C
18  Nc1nccc(Oc2ccc3c(c2)CCCCN3C(=O)Nc2cccc(C(F)(F)F)c2)n1         207 °C

---

Recorded melting point values for a group of compounds are listed next.
Assay Readout: melting point

>>> df
                                   compound  assay_readout       reported
0          Cc1cc(=O)c(C(=O)Nc2ccccc2)c(C)o1  melting point  148 to 149 °C
1  COC1CC(n2cc(C=CBr)c(=O)n(C)c2=O)OC1CF (stereo unspecified)  melting point          95 °C
2        CCOC(=O)c1sc(SC)c2c1CCc1sc(C)nc1-2  melting point  143 to 144 °C
3  Cn1c(=O)nc(-c2ccccc2)c2cc([N+](=O)[O-])ccc21  melting point  261 to 264 °C
4  CCC(C)(C)c1cc(-c2c[nH]c(C=C3SC(N4CCOCC4)=NC3=O)c2)ccc1O  melting point         314 °C
5                S=C(NCCC1=CCCCC1)Nc1ccccn1  melting point  153 to 155 °C

---

Assay Readout: melting point

>>> df
                                    molecule       reported
 0             C=CCN1CCCN(c2c(C)cccc2Cl)C1=S    82 to 84 °C
 1  CC(OC1CN(C(N)=O)C1)c1cccc(C(F)(F)F)c1 (stereo unspecified)  130 to 132 °C
 2  c1ccc(OCCSCc2nnc(-c3ccc(OCCCN4CCCCCC4)cc3)o2)cc1          50 °C
 3    CSc1ccc(C(=O)C(=O)c2ccc(Cl)c(Cl)c2)cc1  249 to 251 °C
 4        Cc1ccc2nc(-c3ccc(Cl)cc3)cc(Cl)c2c1  136 to 138 °C
 5  NC(=O)CCCOc1cccc(CCNS(=O)(=O)c2ccc(Cl)cc2)c1  110 to 112 °C
 6        CCc1cc(OC)cc2nc(-c3ccc(OC)cc3)oc12          85 °C
 7    CSc1nccc(-c2cc(C)ccc2NC(=O)C(C)(C)C)n1  119 to 120 °C
 8  CCC(C)n1nnc2c(N=C=S)cccc21 (stereo unspecified)    77 to 78 °C
 9  CCCC1=C(C#N)C(c2ccccc2Cl)c2c(n[nH]c2CC(OC)OC)N1 (stereo unspecified)         180 °C
10    O=C(NCCCCCn1ccnc1)c1cc2cc(Cl)ccc2[nH]1  214 to 216 °C
11  CCCCCOc1cc(-n2c(=O)cc(C(F)(F)F)n(C)c2=O)c(F)cc1Cl    64 to 66 °C
12  CN1CC(c2cccc(Cl)c2)C(=O)C(c2cccc(Cl)c2)C1 (stereo unspecified)         140 °C
13  N#Cc1cc(Br)c(OC(=O)OCOC(=O)c2ccc(Oc3ccc(C(F)(F)F)cc3Cl)cc2[N+](=O)[O-])c(Br)c1  122 to 123 °C
14           COC(=O)c1ccc(Cn2cnc3ccccc32)cc1    94 to 95 °C
15  COc1cc(OC)c2c(=O)[nH]c(-c3cccc(N4CCN(C(C)C(N)=O)CC4)n3)nc2c1 (stereo unspecified)  149 to 150 °C
16  CCOC(=O)c1c(C)nc(N2CCN(C)CC2)c2nnn(CC)c12    63 to 65 °C
17  COc1cc(C(=O)c2nc(NC(=O)C(F)(F)F)c3ccccn23)ccc1[N+](=O)[O-]         228 °C
18  CC(C)(C)OC(=O)N=C(NC(=O)OC(C)(C)C)N1CCCC1    88 to 91 °C
19  Nc1cc(NCCC2CCCCC2)nc2c1ncn2C1OC(CO)C(O)C1O (stereo unspecified)  194 to 195 °C
20                     NNc1cccc(-c2ccccn2)n1    69 to 70 °C
21  CC(C)(O)c1ccc(Cl)c2nc3n(c12)CCCN3c1ccc(Cl)cc1Cl  216 to 218 °C
22                      ClCc1nc(Cl)c2sccc2n1  101 to 102 °C
23  CCCCCCCCCCCC(=O)NCCNCCNCCNC(=O)CCCCCCCCCCC  110 to 112 °C
24         Cc1ccc(C=CC(C#N)=NOS(C)(=O)=O)cc1  134 to 135 °C
25  O=C(Nc1ccccc1)N1CCc2cc(S(=O)(=O)N3CCN(c4cccc(Cl)c4)CC3)ccc21  177 to 178 °C
26           O=C(CCC(=O)N1CCCCC1)c1ccc(F)cc1    70 to 71 °C
27  CCCOC(=O)c1ccc(CCCCOCCCCCNCC(O)c2ccc(O)c(NS(C)(=O)=O)c2)cc1 (stereo unspecified)    74 to 76 °C
28  CCOC(=O)C1=C(N)NC(N)=C(C(=O)OCC)C1c1ccccc1C(F)(F)F         191 °C
29  CC(C)(C)OC(=O)Nc1ccc(Nc2ncnc3[nH]cc(C(=O)c4ccccc4)c23)cc1  274 to 280 °C
30    O=C(O)COc1ccc(OCC2CCN(c3ccncc3)CC2)cc1  278 to 281 °C
31  Cc1cc(-c2cc(CBr)c(=O)n(Cc3ccccc3Cl)n2)ccc1F  113 to 115 °C
32  CCCCOC(=O)C=Cc1ccc(C=CC(=O)OCCCC)c2nsnc12    90 to 94 °C
33  O=C(Nc1cccc(F)n1)c1cc(-c2ccc(Cl)c(Cl)c2)nc2ccccc12  204 to 206 °C
34             Cc1nnc(-c2[nH]c3ccccc3c2Cl)o1  267 to 268 °C
35  CC(C)(CO)COc1c(-c2ccc(S(C)(=O)=O)cc2)cnn(-c2ccc(F)c(F)c2)c1=O  161 to 162 °C
36   Cc1nc2c(N)nc3ccccc3c2n1CCCCOCCCc1ccccc1  105 to 106 °C
37  COc1cc(N2C(=O)c3ccccc3C2=O)ccc1-c1ccc(Cl)s1  194 to 195 °C
38          O=c1ccc(C(F)(F)F)cn1Cc1ccc(F)cc1  70.1 to 72 °C
39  CC1C(=O)c2cc(NS(C)(=O)=O)ccc2OC12CCN(CCc1ccccn1)CC2 (stereo unspecified)  210 to 211 °C
40  COc1cc2c(cc1CCCCN1CCCC1)[nH]c1cc(-c3ccccc3Cl)c3c(c12)C(=O)NC3=O  173 to 178 °C
